FYI, the data here is from patent US3956314A.

testDetails: toxicity determined in rat by intraperitoneal administration (LD50)
testSettings: in vivo, ip, reference drug
readoutType: LD50 (mg/kg)
Write the number in mg/kg without appending the unit.

Q) Fill in LD50 for record `CNC1=Nc2ccc(Cl)cc2C(c2ccccc2)=[N+]([O-])C1`
A) 240
